# ASSAY_DETAILS: Caspase-3/7 induction in CHO-K1 cells by small molecules, qHTS cell viability counter screen (AID 1346979); further: nearly all actives have a fitted effect of over 35% in size; further: potency means the concentration at half of the fitted maximal effect
# CONDITION_LABEL: CellTiter-Fluor fluorescence, 17 h; series mostly up to 92.4 µM
Records with an inconclusive call do not appear. The source made the active and inactive calls. The call rests on the fitted dose curve; in most records, active means well fitted cell-killing curve with a large enough effect in the repeat runs; inconclusive means weak or mixed curves, or effect the other way; inactive means no such curve, though single readings can be large or run the other way.
OBSERVED_PROPERTY: Potency

// fetch Potency given entry `ON=C1CCCC1` inactive

// fetch Potency given entry `S=c1[nH]c2ccccc2s1` 64.8 µM (active)

// fetch Potency given entry `OCCN1CCN(CC/C=C2/c3ccccc3Sc3ccc(C(F)(F)F)cc32)CC1` 29.8 µM (active)

// fetch Potency given entry `CNC(=O)c1ccccc1` inactive

* * *

# ASSAY_SYSTEM: Peroxisome proliferator-activated receptor delta (Homo sapiens) (UniProt Q03181)
# Sequence (Q03181 whole entry, looked up): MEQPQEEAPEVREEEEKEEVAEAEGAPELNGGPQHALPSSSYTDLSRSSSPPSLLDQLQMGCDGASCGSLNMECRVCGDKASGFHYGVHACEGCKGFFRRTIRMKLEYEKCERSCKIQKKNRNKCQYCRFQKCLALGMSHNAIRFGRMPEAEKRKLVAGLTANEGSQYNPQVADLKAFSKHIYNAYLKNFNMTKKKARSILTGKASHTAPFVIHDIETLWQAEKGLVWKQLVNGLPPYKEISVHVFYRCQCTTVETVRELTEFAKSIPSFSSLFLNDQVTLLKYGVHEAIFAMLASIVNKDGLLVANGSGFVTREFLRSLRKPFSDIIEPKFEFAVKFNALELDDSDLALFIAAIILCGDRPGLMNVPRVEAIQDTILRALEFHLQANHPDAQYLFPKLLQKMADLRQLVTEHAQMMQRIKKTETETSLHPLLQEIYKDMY
# ASSAY_DETAILS: qHTS assay to identify small molecule antagonists of the peroxisome proliferator-activated receptor delta (PPARd) signaling pathway (AID 743215);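 further: cells stimulated with agonist L165041 at 300 nM final during compound exposure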
# CONDITION_LABEL: HEK293H PPARd-UAS-bla, beta-lactamase FRET ratio, antagonist, 17 h; series mostly up to 62 µM
Inconclusive results are not listed. The source made the active and inactive calls. Calls follow the shape of the dose curve; as a rule, active = well fitted inhibition curve with a large enough effect in the signal ratio in the repeat runs (not every such curve was filed as active); inconclusive = weak or mixed curves, or effect the other way; inactive = no such curve, though single readings can be large or run the other way; the % refers to the signal ratio.
# output must be one of YES (active), NO (inactive)

Check out these entries, answers already filled in.
Can you look up the reported call for `COc1cc(/C=C/C(=O)O[C@H]2CC[C@]34C[C@]35CC[C@]3(C)[C@@H]([C@H](C)CCC=C(C)C)CC[C@@]3(C)[C@@H]5CC[C@H]4C2(C)C)ccc1O` for me? NO

Can you look up the reported call for `COC(=O)c1cc(Cl)ccc1OC` for me? NO

Can you look up the reported call for `Oc1ccc2cc(SSc3ccc4cc(O)ccc4c3)ccc2c1` for me? YES

Can you look up the reported call for `CO[Si](CCCNc1ccccc1)(OC)OC` for me? NO

Can you look up the reported call for `Cc1ccc(O)c(C(C)(C)C)c1` for me? NO

Can you look up the reported call for `O=C1c2ccccc2Cc2ccccc21` for me? NO

Next:
Can you look up the reported call for `Nc1ccc2cc(S(=O)(=O)O)cc(O)c2c1N=Nc1ccccc1C(F)(F)F` for me? NO

Can you look up the reported call for `C[C@H](CCC(=O)O)[C@H]1CC[C@H]2[C@@H]3CC[C@@H]4C[C@H](O)CC[C@]4(C)[C@H]3CC[C@]12C` for me? NO

Can you look up the reported call for `Cc1cc(N)c(S(=O)(=O)O)cc1Cl` for me? NO

Can you look up the reported call for `CN1CCN(CCC(=O)N2c3ccccc3Sc3ccc(C(F)(F)F)cc32)CC1` for me? YES

* * *

# ASSAY_DETAILS: qHTS RealTime-Glo MT Cell Viability Assay in HepG2 cells - 32 hour (AID 1224877); further: nearly all actives have a fitted effect of over 55% in size
# CONDITION_LABEL: RealTime-Glo luminescence; series mostly up to 76.8 µM
Inconclusive results are not listed. The source made the active and inactive calls. Calls come from the whole dose curve; as a rule, active = well fitted cell-killing curve with a large enough effect in the repeat runs; inconclusive = weak or mixed curves; inactive = flat fitted curve, though single readings scatter.
# output must be one of active, inactive

Check out these entries, answers already filled in.
Can you look up the reported call for `CN(C/C=C/C#CC(C)(C)C)Cc1cccc2ccccc12` for me? inactive

Can you look up the reported call for `NNc1nc(-c2ccc(N)cc2)cs1` for me? inactive

Can you look up the reported call for `NC(=O)CC[C@@H]1NC(=O)[C@H](Cc2ccccc2)NC(=O)[C@H](Cc2ccc(O)cc2)NC(=O)CCSSC[C@@H](C(=O)N2CCC[C@H]2C(=O)N[C@@H](CCCN=C(N)N)C(=O)NCC(N)=O)NC(=O)[C@H](CC(N)=O)NC1=O` for me? inactive

Can you look up the reported call for C=C(C)C(=O)OCC(O)COc1ccc(C(C)(C)c2ccc(OCC(O)COC(=O)C(=C)C)cc2)cc1 (configuration not stated) for me? active

Can you look up the reported call for `CCCCCCCCCCCCCCCC[N+](C)(C)CCN(Cc1ccc(OC)cc1)c1ncccn1` for me? active

Can you look up the reported call for `CCCCCCCCCCCCCCCS(=O)(=O)Oc1ccccc1` for me? inactive

Next:
Can you look up the reported call for `CCCCCCCCCCCCCCCC(=O)OC[C@H](O)[C@H]1OC(=O)C(O)=C1O` for me? inactive

Can you look up the reported call for `O=C(Nc1ccc(Oc2ccc(Cl)cc2)c(Cl)c1)c1cc(I)cc(I)c1O` for me? inactive

Can you look up the reported call for CCCCC(CC)COP(=O)(O)OCC(CC)CCCC (configuration not stated) for me? inactive
